These data points were gathered from patent US8901313B2.

# Tested on: p52 (NF-kB2) nuclear translocation in HeLa cells
# method_summary: NIK p52 Translocation Assay (non-classical NF-kB signaling)
# Assay type: cell-based
# measurement_conditions: Homo sapiens, HeLa; comparative data, Tables 16A-16D; read-out: NIK p52 Translocation (IC50)
attribute_measured: log10 of IC50 (log10 of the value in nM)

molecule	target_under_test	attribute_measured	test_value
CN(C)C(=O)c1nn(-c2ccnc(N)n2)c2cc(C#CC(C)(O)c3ncco3)ccc12 (centres unmarked)	p52 (NF-kB2) nuclear translocation in HeLa cells	log10 of IC50	2.54
CC(O)(C#Cc1ccc2ncn(-c3ccnc(N)n3)c2c1)c1nccs1 (centres unmarked)	p52 (NF-kB2) nuclear translocation in HeLa cells	log10 of IC50	1.85
CC(O)(C#Cc1ccc2c(c1)N(c1ccnc(N)n1)CC2)c1nccs1 (centres unmarked) [reference compound]	p52 (NF-kB2) nuclear translocation in HeLa cells	log10 of IC50	2.94
CC(O)(C#Cc1ccc2cnn(-c3ccnc(N)n3)c2c1)c1ncco1 (centres unmarked)	p52 (NF-kB2) nuclear translocation in HeLa cells	log10 of IC50	1.89
Cc1nn(-c2ccnc(N)n2)c2cc(C#CC(C)(O)c3nccs3)ccc12 (centres unmarked)	p52 (NF-kB2) nuclear translocation in HeLa cells	log10 of IC50	2.35

* * *

# target_under_test: nuclear factor-kappa B (NF-kB)-inducing kinase (NIK) (Homo sapiens)
# Construct: made in house; host or cells: baculovirus-infected insect cells
# method_summary: NIK Enzyme Inhibition Assay (Transcreener ADP assay)
# Assay type: biochemical
# measurement_conditions: comparative data, Tables 16A-16D; read-out: NIK ADP (Ki)
pKi: −log10 of the molar value.
Measured pKi by item
attribute_measured: pKi

compound	target_under_test	test_value
Cc1nn(-c2ccnc(N)n2)c2cc(C#CC(C)(O)c3nccs3)ccc12 (centres unmarked)	nuclear factor-kappa B (NF-kB)-inducing kinase (NIK) (Homo sapiens)	10.00
CC(O)(C#Cc1ccc2cnn(-c3ccnc(N)n3)c2c1)c1ncco1 (centres unmarked)	nuclear factor-kappa B (NF-kB)-inducing kinase (NIK) (Homo sapiens)	9.52
CN(C)C(=O)c1nn(-c2ccnc(N)n2)c2cc(C#CC(C)(O)c3ncco3)ccc12 (centres unmarked)	nuclear factor-kappa B (NF-kB)-inducing kinase (NIK) (Homo sapiens)	9.70
CC(O)(C#Cc1ccc2c(c1)N(c1ccnc(N)n1)CC2)c1nccs1 (centres unmarked) [reference compound]	nuclear factor-kappa B (NF-kB)-inducing kinase (NIK) (Homo sapiens)	8.57
CC(O)(C#Cc1ccc2ncn(-c3ccnc(N)n3)c2c1)c1nccs1 (centres unmarked)	nuclear factor-kappa B (NF-kB)-inducing kinase (NIK) (Homo sapiens)	9.52

* * *

# target_under_test: nuclear factor-kappa B (NF-kB)-inducing kinase (NIK) (Homo sapiens, UniProt Q99558)
# Construct: made in house; host or cells: baculovirus-infected insect cells
# Sequence (Q99558 whole entry): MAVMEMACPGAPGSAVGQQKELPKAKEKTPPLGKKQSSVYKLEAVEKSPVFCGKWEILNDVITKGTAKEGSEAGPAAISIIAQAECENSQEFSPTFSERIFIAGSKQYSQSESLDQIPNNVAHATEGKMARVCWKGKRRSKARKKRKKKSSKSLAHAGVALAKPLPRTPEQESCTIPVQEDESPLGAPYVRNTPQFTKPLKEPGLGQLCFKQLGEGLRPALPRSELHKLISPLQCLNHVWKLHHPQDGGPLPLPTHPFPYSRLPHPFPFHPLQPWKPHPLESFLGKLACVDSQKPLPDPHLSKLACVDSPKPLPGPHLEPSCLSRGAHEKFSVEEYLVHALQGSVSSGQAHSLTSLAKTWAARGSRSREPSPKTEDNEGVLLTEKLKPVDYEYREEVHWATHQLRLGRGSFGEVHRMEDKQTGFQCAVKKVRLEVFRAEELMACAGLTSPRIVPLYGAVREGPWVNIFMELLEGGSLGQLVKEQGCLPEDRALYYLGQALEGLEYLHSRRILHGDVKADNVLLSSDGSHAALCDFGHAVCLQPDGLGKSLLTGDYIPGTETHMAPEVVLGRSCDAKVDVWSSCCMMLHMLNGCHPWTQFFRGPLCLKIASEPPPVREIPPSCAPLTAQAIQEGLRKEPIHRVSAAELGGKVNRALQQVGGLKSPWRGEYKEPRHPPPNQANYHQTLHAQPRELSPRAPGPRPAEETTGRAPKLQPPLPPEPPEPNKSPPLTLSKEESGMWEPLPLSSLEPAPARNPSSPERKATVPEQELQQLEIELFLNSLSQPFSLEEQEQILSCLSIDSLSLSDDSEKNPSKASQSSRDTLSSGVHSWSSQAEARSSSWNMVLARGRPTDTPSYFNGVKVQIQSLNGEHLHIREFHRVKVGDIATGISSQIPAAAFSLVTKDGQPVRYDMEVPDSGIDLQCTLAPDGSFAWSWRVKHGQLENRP
# method_summary: NIK Enzyme Inhibition Assay (Transcreener ADP assay)
# Assay type: biochemical
# measurement_conditions: purified NIK 0.2-1 nM, 10 uM ATP, fluorescence polarization, Morrison's quadratic equation; read-out: inhibitory value (Ki) for NIK
Entries and their Ki

compound	modifier_sign	Ki (nM)
CC(O)(C#Cc1ccc2c(C(=O)N3CCOCC3)nn(-c3ccnc(N)n3)c2c1)CF (centres unmarked)	=	14
Cc1nn(-c2ccnc(N)n2)c2cc(C#CC(C)(O)c3cncs3)ccc12 (centres unmarked)	=	105
Nc1nccc(-n2ncc3c(F)cc(C#CC4(O)CCCC4)cc32)n1	≥	5000
Cc1nn(-c2ccnc(N)n2)c2cc(C#CC3(O)CCCN(C)C3=O)ccc12 (centres unmarked)	=	2
COCCNc1nc2ccc(C#CC(C)(O)c3nc(C)cs3)cc2n1-c1ccnc(N)n1 (centres unmarked)	=	9
CNc1nccc(-n2ncc3ccc(C#C[C@@](C)(O)c4cc(C)on4)cc32)n1	=	150
Cc1cc(C(C)(O)C#Cc2ccc3nc(OC4CCOCC4)n(-c4ccnc(N)n4)c3c2)no1 (centres unmarked)	=	3
Cc1nn(-c2ccnc(N)n2)c2cc(C#C[C@@](C)(O)c3nccs3)ccc12 (stereo in doubt)	=	0.14

* * *

# target_under_test: nuclear factor-kappa B (NF-kB)-inducing kinase (NIK) (Homo sapiens)
# Construct: made in house; host or cells: baculovirus-infected insect cells
# method_summary: NIK Enzyme Inhibition Assay (Transcreener ADP assay)
# Format: biochemical
# measurement_conditions: purified NIK 0.2-1 nM, 10 uM ATP, fluorescence polarization, Morrison's quadratic equation; read-out: inhibitory value (Ki) for NIK
Strictly below 1 nM in Ki: fulfilled. Otherwise: not fulfilled.

compound	assigned_label
COCc1cc(C(C)(O)C#Cc2ccc3c(C(=O)N4CCOCC4)nn(-c4ccnc(N)n4)c3c2)no1 (stereo not shown)	not fulfilled
COCCOc1nc2ccc(C#CC(C)(O)c3ncccn3)cc2n1-c1ccnc(N)n1 (stereo not shown)	not fulfilled
Cc1nn(-c2ccnc(N)n2)c2cc(C#CC(C)(O)c3cocn3)ccc12 (stereo not shown)	not fulfilled
CC(C)(O)c1nn(-c2ccnc(N)n2)c2cc(C#CC(C)(O)c3ncccn3)ccc12 (stereo not shown)	not fulfilled
CC(O)(C#Cc1ccc2nc(OCCO)n(-c3ccnc(N)n3)c2c1)c1ccc(Cl)cn1 (stereo not shown) [Example T1.1-123]	not fulfilled
Cc1nc2ccc(C#CC3(O)CC(C#N)C3)cc2n1-c1ncnc(N)n1 (stereo not shown)	not fulfilled
Cc1cc([C@](C)(O)C#Cc2ccc3c(c2)n(-c2ccnc(N)n2)c(=O)n3C)no1	fulfilled
CN(C)C(=O)c1nn(-c2ccnc(N)n2)c2cc(C#C[C@@](C)(O)c3nccs3)ccc12	fulfilled
CC(O)(C#Cc1ccc2c(CF)nn(-c3ccnc(N)n3)c2c1)c1ncccn1 (stereo not shown)	not fulfilled
CN(C)C(=O)c1nn(-c2ccnc(N)n2)c2cc(C#CC(C)(O)c3ncco3)ccc12 (stereo not shown)	fulfilled
CC(O)(C#Cc1ccc2nc(OC3COC3)n(-c3ccnc(N)n3)c2c1)c1ncccn1 (stereo not shown)	not fulfilled
CC(O)(C#Cc1ccc2c(C(=O)N3CCOCC3)nn(-c3ccnc(N)n3)c2c1)c1ncccn1 (stereo not shown) [Example T1.1-149]	fulfilled
Cc1nc(C(C)(O)C#Cc2ccc3c(CC(C)(O)C(F)F)nn(-c4ccnc(N)n4)c3c2)no1 (stereo not shown)	not fulfilled
Cc1cc([C@](C)(O)C#Cc2ccc3nc(C)n(-c4ncnc(N)n4)c3c2)no1	fulfilled
Cc1nn(-c2ccnc(N)n2)c2cc(C#CC(C)(O)c3cc[nH]n3)ccc12 (stereo not shown)	not fulfilled

* * *

# target_under_test: nuclear factor-kappa B (NF-kB)-inducing kinase (NIK) (Homo sapiens, UniProt Q99558)
# Construct: made in house; host or cells: baculovirus-infected insect cells
# method_summary: NIK Enzyme Inhibition Assay (Transcreener ADP assay)
# Type: biochemical
# measurement_conditions: purified NIK 0.2-1 nM, 10 uM ATP, fluorescence polarization, Morrison's quadratic equation; read-out: inhibitory value (Ki) for NIK
pKi: −log10 of the molar value.

compound	target_under_test	pKi
Cc1nc2ccc(C#CC(C)(O)c3ncccn3)cc2n1-c1ncnc(N)n1 (centres unmarked)	nuclear factor-kappa B (NF-kB)-inducing kinase (NIK) (Homo sapiens, UniProt Q99558)	8.22
Cn1cc(-c2cnc(N)nc2-n2ncc3ccc(C#CC(C)(C)O)cc32)cn1	nuclear factor-kappa B (NF-kB)-inducing kinase (NIK) (Homo sapiens, UniProt Q99558)	7.41
Cc1cc(C(C)(O)C#Cc2ccc3nc(C)n(-c4ncnc(N)n4)c3c2)no1 (centres unmarked)	nuclear factor-kappa B (NF-kB)-inducing kinase (NIK) (Homo sapiens, UniProt Q99558)	8.30
CN(C)C(=O)c1nn(-c2ccnc(N)n2)c2cc(C#CC(C)(O)c3nccs3)ccc12 (centres unmarked)	nuclear factor-kappa B (NF-kB)-inducing kinase (NIK) (Homo sapiens, UniProt Q99558)	9.05
Cc1cc([C@](C)(O)C#Cc2ccc3c(C(N)=O)nn(-c4ccnc(N)n4)c3c2)no1	nuclear factor-kappa B (NF-kB)-inducing kinase (NIK) (Homo sapiens, UniProt Q99558)	9.00
Cc1nn(-c2ccnc(N)n2)c2cc(C#CC(C)(O)c3nccs3)ccc12 (centres unmarked) [Example T1-13]	nuclear factor-kappa B (NF-kB)-inducing kinase (NIK) (Homo sapiens, UniProt Q99558)	9.58
Cc1noc(C(C)(O)C#Cc2ccc3c(C(=O)N(C)C)nn(-c4ccnc(N)n4)c3c2)n1 (centres unmarked)	nuclear factor-kappa B (NF-kB)-inducing kinase (NIK) (Homo sapiens, UniProt Q99558)	7.60
Cc1cc(C(C)(O)C#Cc2ccc3c(C(O)(C4CCOCC4)C4CC4)nn(-c4ccnc(N)n4)c3c2)no1 (centres unmarked)	nuclear factor-kappa B (NF-kB)-inducing kinase (NIK) (Homo sapiens, UniProt Q99558)	8.30

* * *

# target_under_test: nuclear factor-kappa B (NF-kB)-inducing kinase (NIK) (Homo sapiens, UniProt Q99558)
# Construct: made in house; host or cells: baculovirus-infected insect cells
# method_summary: NIK Enzyme Inhibition Assay (Transcreener ADP assay)
# Type: biochemical
# measurement_conditions: purified NIK 0.2-1 nM, 10 uM ATP, fluorescence polarization, Morrison's quadratic equation; read-out: inhibitory value (Ki) for NIK
pKi: −log10 of the molar value.
Catalogue of compounds with associated pKi

compound	pKi
COCCN(C)C(=O)c1nn(-c2ccnc(N)n2)c2cc(C#CC(C)(O)c3ncccn3)ccc12 (centres unmarked)	9.70
Cc1nn(-c2ccnc(N)n2)c2cc(C#CC3(O)CCN(C)C3=O)ccc12 (centres unmarked)	9.00
Cn1c(=O)n(-c2ccnc(N)n2)c2cc(C#CC3(O)CCn4ccnc43)ccc21 (centres unmarked)	9.00
Cc1cc(C(C)(O)C#Cc2ccc3c(C(=O)N(C)C)nn(-c4ccnc(N)n4)c3c2)on1 (centres unmarked)	8.00
CC(=O)N1CC(Oc2nc3ccc(C#CC(C)(O)c4cc(C)on4)cc3n2-c2ccnc(N)n2)C1 (centres unmarked)	8.40
Cc1cc([C@@](C)(O)C#Cc2ccc3c(C(=O)N4CCOCC4)nn(-c4ccnc(N)n4)c3c2)no1	7.34
Cc1nnc(C(C)(O)C#Cc2ccc3c(C(=O)N4CCOCC4)nn(-c4ccnc(N)n4)c3c2)o1 (centres unmarked)	8.15
Cc1cnc(C(C)(O)C#Cc2ccc3c(C)nn(-c4ccnc(N)n4)c3c2)cn1 (centres unmarked)	7.16
